# study.target: IKZF2 (Homo sapiens (Human), UniProt Q96SW2+Q9UKS7)
# Sequence (Q9UKS7 whole entry, one chain of several): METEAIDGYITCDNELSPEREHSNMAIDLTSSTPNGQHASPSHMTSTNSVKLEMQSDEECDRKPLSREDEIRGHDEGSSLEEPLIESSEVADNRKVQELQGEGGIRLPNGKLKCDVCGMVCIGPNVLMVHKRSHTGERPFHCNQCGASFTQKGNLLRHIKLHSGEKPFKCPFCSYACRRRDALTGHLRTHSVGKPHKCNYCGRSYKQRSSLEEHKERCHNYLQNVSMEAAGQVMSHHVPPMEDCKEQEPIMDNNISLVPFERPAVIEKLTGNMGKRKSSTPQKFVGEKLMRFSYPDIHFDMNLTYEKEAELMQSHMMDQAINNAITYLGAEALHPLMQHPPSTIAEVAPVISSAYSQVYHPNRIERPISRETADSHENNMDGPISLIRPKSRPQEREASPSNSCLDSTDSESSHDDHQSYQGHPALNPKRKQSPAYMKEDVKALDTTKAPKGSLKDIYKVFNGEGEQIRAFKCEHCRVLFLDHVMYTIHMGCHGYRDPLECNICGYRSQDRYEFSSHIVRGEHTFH
# protocol.summary: In vitro IKZF2 HiBit Assay (HEK293T Flp-in-HiBiT cells)
# Type: cell-based
# test.conditions: HEK-293T; HEK293T Flp-in-HiBiT cells, 6 hrs incubation; read-out: IKZF2 HiBit Dmax (%)
Reported Dmax is given for each of the following compounds.

// worked examples, Dmax included
# compound, study.target, endpoint.name, recorded.result
data = [
    ("Cn1ccc2c(CN3CCC(F)CC3)cc(-c3ccc4c(c3)CN(C3CCC(=O)NC3=O)C4=O)nc21 (stereo not shown)", "IKZF2 (Homo sapiens (Human), UniProt Q96SW2+Q9UKS7)", "Dmax", "> 80%"),
    ("Cn1ccc2c(Cn3cnc4ccccc43)cc(-c3ccc4c(c3)CN(C3CCC(=O)NC3=O)C4=O)nc21 (stereo not shown)", "IKZF2 (Homo sapiens (Human), UniProt Q96SW2+Q9UKS7)", "Dmax", "40 to 60%"),
    ("CNc1n[nH]c2c(CN3CCCC3)cc(-c3ccc4c(c3)CN(C3CCC(=O)NC3=O)C4=O)nc12 (stereo not shown)", "IKZF2 (Homo sapiens (Human), UniProt Q96SW2+Q9UKS7)", "Dmax", "> 80%"),
    ("O=C1CCC(N2Cc3cc(-c4cc(CN5CCC5)c5[nH]ccc5n4)ccc3C2=O)C(=O)N1 (stereo not shown)", "IKZF2 (Homo sapiens (Human), UniProt Q96SW2+Q9UKS7)", "Dmax", "> 80%"),
    ("Cc1cc(-c2ccc3c(c2)CN(C2CCC(=O)NC2=O)C3=O)nc2c1nc(CN1CCCC1)n2C1COC1 (stereo not shown)", "IKZF2 (Homo sapiens (Human), UniProt Q96SW2+Q9UKS7)", "Dmax", "< 20%"),
]

What value of measured Dmax is listed for Cn1ccc2c(CN3CCCC3)cc(-c3cc4c(cc3Cl)C(=O)N(C3CCC(=O)NC3=O)C4)nc21 (stereo not shown) ?
> 80%

Moving on to CS(=O)(=O)CCn1ccc2c(CN3CCCC3)cc(-c3ccc4c(c3)CN(C3CCC(=O)NC3=O)C4=O)nc21 (stereo not shown)
20 to 40%

----------
# study.target: IKZF1 (Homo sapiens (Human), UniProt Q13422+Q96SW2)
# Sequence (Q13422 whole entry): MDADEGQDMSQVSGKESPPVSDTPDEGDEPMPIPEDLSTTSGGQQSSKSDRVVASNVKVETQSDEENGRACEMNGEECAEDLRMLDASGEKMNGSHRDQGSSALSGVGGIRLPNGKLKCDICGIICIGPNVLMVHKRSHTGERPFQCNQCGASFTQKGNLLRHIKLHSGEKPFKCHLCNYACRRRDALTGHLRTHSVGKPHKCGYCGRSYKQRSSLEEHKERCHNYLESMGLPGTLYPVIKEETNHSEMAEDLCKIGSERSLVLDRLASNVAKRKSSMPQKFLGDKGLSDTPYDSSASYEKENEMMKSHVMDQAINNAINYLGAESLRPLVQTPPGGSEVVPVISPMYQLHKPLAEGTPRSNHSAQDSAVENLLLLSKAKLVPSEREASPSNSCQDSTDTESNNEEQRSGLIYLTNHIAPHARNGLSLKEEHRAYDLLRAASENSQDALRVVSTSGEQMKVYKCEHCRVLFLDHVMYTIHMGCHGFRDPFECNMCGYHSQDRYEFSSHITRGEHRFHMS
# Sequence (Q96SW2 whole entry): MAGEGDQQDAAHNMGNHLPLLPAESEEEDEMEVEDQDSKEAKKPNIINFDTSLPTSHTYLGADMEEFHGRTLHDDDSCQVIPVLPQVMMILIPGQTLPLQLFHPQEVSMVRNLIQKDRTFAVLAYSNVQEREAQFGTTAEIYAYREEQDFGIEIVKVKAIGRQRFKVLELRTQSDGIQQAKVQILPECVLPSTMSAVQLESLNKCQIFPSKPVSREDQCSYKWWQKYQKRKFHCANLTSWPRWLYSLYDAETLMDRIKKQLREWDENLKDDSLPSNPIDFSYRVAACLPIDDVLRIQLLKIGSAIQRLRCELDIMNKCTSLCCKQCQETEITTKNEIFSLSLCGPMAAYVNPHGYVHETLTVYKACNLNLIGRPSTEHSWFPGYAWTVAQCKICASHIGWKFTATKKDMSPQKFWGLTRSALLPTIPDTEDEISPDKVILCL
# Sequence (Q16531 2-1140 partner): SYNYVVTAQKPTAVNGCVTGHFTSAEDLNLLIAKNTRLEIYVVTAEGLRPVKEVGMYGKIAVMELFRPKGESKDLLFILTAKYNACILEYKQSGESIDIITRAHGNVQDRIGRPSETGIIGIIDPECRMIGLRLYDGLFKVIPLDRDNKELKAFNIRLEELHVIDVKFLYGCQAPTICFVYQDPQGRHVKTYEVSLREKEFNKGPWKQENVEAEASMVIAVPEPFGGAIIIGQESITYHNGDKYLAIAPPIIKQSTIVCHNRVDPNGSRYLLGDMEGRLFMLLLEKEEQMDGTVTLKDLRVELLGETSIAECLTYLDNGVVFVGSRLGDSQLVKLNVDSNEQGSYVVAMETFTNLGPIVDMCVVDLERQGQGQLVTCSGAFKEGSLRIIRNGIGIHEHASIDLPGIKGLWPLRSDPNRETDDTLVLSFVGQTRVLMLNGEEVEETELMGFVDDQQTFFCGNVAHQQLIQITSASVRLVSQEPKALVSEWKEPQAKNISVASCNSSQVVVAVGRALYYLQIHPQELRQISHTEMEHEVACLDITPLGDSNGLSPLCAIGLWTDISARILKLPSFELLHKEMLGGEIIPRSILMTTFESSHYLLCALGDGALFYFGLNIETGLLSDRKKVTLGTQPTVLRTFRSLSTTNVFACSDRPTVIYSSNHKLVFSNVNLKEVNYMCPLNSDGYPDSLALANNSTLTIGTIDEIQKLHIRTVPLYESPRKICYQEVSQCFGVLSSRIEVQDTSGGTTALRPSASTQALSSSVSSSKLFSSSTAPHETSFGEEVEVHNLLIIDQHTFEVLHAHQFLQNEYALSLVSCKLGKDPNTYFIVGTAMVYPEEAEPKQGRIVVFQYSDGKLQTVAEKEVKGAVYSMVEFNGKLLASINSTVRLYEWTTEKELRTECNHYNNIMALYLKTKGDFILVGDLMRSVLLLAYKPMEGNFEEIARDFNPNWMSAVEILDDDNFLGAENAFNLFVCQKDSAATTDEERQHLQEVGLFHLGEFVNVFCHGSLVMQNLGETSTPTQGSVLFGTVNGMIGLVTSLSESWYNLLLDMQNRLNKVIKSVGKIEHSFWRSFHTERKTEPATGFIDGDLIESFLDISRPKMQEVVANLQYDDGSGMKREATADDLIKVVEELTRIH
# protocol.summary: In vitro IKZF1 HiBit Assay (HEK293T Flp-in-HiBiT-IKZF1 stable cell line)
# Format: cell-based
# test.conditions: HEK-293T; HEK293T Flp-in-HiBiT-IKZF1 stable cell line, 6 hrs incubation; read-out: IKZF1 HiBit Dmax (%)
endpoint.name: Dmax

// worked examples, Dmax included
# compound, recorded.result
measured = [
    ("O=C1CCC(N2Cc3cc(-c4cc(CN5CCCC5)c5[nH]ccc5n4)ccc3C2=O)C(=O)N1 (stereo not shown)", "20 to 40%"),
    ("O=C1CCC(N2Cc3cc(-c4cc(CN5CCC5)c5cc[nH]c5n4)ccc3C2=O)C(=O)N1 (stereo not shown)", "20 to 40%"),
    ("Cn1ccc2c(CN3CC4CCC(C4)C3)cc(-c3ccc4c(c3)CN(C3CCC(=O)NC3=O)C4=O)nc21 (stereo not shown)", "20 to 40%"),
    ("Cn1ccc2c(CN3CCC4(CCCC4)CC3)cc(-c3ccc4c(c3)CN(C3CCC(=O)NC3=O)C4=O)nc21 (stereo not shown)", "20 to 40%"),
    ("Cn1ccc2c(CN3CCC(S(C)(=O)=O)CC3)cc(-c3ccc4c(c3)CN(C3CCC(=O)NC3=O)C4=O)nc21 (stereo not shown)", "< 20%"),
]

What value of measured Dmax is listed for CS(=O)(=O)C1CCN(Cc2cc(-c3ccc4c(c3)CN(C3CCC(=O)NC3=O)C4=O)nc3c2ccn3C2COC2)CC1 (stereo not shown) ?
< 20%

Moving on to O=C1CCC(N2Cc3c(ccc(-c4cc(CN5CCC6(CC5)COC6)c5ccn(C6CS(=O)(=O)C6)c5n4)c3F)C2=O)C(=O)N1 (stereo not shown)
40 to 60%

Numbers sourced from patent US20250214991A1.
